The origin of these recorded values is patent US7589097B2.

propertyLabel: melting point

[
  {
    "moleculeSmiles": "Cc1c(Cn2nnc3c(-c4ccco4)nc(N)nc32)cccc1[N+](=O)[O-]",
    "resultValue": "258.8 to 259 °C"
  },
  {
    "moleculeSmiles": "Cc1ccc(Cn2nnc3c(-c4ccco4)nc(N)nc32)cc1N",
    "resultValue": "268.5 to 269.1 °C"
  },
  {
    "moleculeSmiles": "Nc1nc(-c2ccco2)c2nnn(Cc3cccc4cc[nH]c34)c2n1",
    "resultValue": "295.3 to 295.5 °C"
  },
  {
    "moleculeSmiles": "CN(Cc1cccc(Cn2nnc3c(-c4ccco4)nc(N)nc32)n1)S(C)(=O)=O",
    "resultValue": "205.8 to 206 °C"
  },
  {
    "moleculeSmiles": "Cc1nc(Cn2nnc3c(-c4ccco4)nc(N)nc32)cs1",
    "resultValue": "285.7 to 285.9 °C"
  },
  {
    "moleculeSmiles": "Cc1noc(C)c1Cn1nnc2c(-c3ccco3)nc(N)nc21",
    "resultValue": "284.3 to 284.5 °C"
  },
  {
    "moleculeSmiles": "Cc1cccc(Cn2nnc3c(-c4ccco4)nc(N)nc32)n1",
    "resultValue": "200.8 to 218.9 °C"
  },
  {
    "moleculeSmiles": "Nc1cccc(Cn2nnc3c(-c4cccs4)nc(N)nc32)c1",
    "resultValue": "265.9 to 266 °C"
  },
  {
    "moleculeSmiles": "Nc1nc(-c2ccco2)c2nnn(CC(=O)c3ccccc3[N+](=O)[O-])c2n1",
    "resultValue": "231.6 to 231.7 °C"
  }
]
